B1: Azoarcus group I ribozyme (parent)
chain: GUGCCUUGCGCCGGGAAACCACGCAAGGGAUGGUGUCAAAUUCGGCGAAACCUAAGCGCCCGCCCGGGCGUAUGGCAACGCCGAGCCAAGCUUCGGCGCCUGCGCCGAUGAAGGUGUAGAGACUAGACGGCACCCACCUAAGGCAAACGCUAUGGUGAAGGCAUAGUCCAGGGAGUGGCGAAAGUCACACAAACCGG

# Variants of: B1
# assay.explanation: reverse-splicing fitness (ratio to wild type); higher = more active; in vitro selection; Mg2+ level not given
Reported reverse-splicing fitness values for the following variants.
metric.name: reverse-splicing fitness

variant.notation: A111C A120G A145G C150U U176G
metric.name: reverse-splicing fitness
numeric.value: 0.00709

variant.notation: C82A A111C A145G C150U C169A U176A
metric.name: reverse-splicing fitness
numeric.value: 0.0141

variant.notation: C82U A111U A120C A145C C150G C169G U176A
metric.name: reverse-splicing fitness
numeric.value: 0.00839

variant.notation: C82A A111C A120C C150G C169A U176A
metric.name: reverse-splicing fitness
numeric.value: 0.00991

variant.notation: C82G A111G A120U A145G C150U C169A U176A
metric.name: reverse-splicing fitness
numeric.value: 0.00839

variant.notation: C82G A111U A120C A145C C150A C169U U176C
metric.name: reverse-splicing fitness
numeric.value: 0.0105

variant.notation: C82G A111C A120U A145C C150U C169A U176G
metric.name: reverse-splicing fitness
numeric.value: 0.0025

variant.notation: A111U A145C C150U C169G U176C
metric.name: reverse-splicing fitness
numeric.value: 0.0135

variant.notation: A111U A145G C150A C169A U176A
metric.name: reverse-splicing fitness
numeric.value: 0.0172

variant.notation: C82A A111G A120U A145G C169U U176G
metric.name: reverse-splicing fitness
numeric.value: 0.00173

variant.notation: A111C A120C A145G C150U C169G U176A
metric.name: reverse-splicing fitness
numeric.value: 0.0118
